This document collects Ki values reported for UniProt P00747.

> print(dat)
                                     smiles  reported.measurement
1  NC(N)=Nc1ncc(Cl)c2ccc(S(=O)(=O)N3CCC[C@@H]3C(=O)O)cc12              > 100 µM

Problem: Entry NC(N)=Nc1ncc(Cl)c2ccc(S(=O)(=O)NC3(C(=O)O)CCCC3)cc12 has what Ki?
Result: 14 µM

Problem: Entry CN(CC(=O)O)S(=O)(=O)c1ccc2c(Cl)cnc(N=C(N)N)c2c1 has what Ki?
Result: > 100 µM

Problem: Entry NC(N)=Nc1ncc(Cl)c2ccc(S(=O)(=O)NCCC(=O)O)cc12 has what Ki?
Result: > 100 µM

Problem: Entry NC(N)=Nc1ncc(Cl)c2ccc(S(=O)(=O)NC3CCCC3)cc12 has what Ki?
Result: > 100 µM

====

pKi: −log10 of the molar value.
This document collects pKi values reported for Tissue-type plasminogen activator (Homo sapiens, UniProt P00750).

These solved cases illustrate the format of a correct answer.
> print(dat)
                                     smiles  reported.measurement
1  NC(N)=Nc1ncc(Cl)c2ccc(S(=O)(=O)NCC(=O)O)cc12                < 4.52
2  NC(N)=Nc1ncc(Cl)c2ccc(S(=O)(=O)N(CC(=O)O)c3ccccc3)cc12                < 4.00
3  NC(N)=Nc1ncc(Cl)c2ccc(S(=O)(=O)NC3(C(=O)NCCO)CCCC3)cc12                  3.97
4  NC(N)=Nc1ncc(Cl)c2ccc(S(=O)(=O)NC3(C(=O)O)CCOCC3)cc12                < 4.00

Problem: Entry NC(N)=Nc1ncc(Cl)c2ccc(S(=O)(=O)N3CCCC3)cc12 has what pKi?
Result: < 4.52

Problem: Entry NC(N)=Nc1ncc(Cl)c2ccc(S(=O)(=O)NC3(C(=O)O)CCCC3)cc12 has what pKi?
Result: 4.42

Problem: Entry CC(C)(NS(=O)(=O)c1ccc2c(Cl)cnc(N=C(N)N)c2c1)C(=O)O has what pKi?
Result: 4.40

Problem: Entry CC(C)(C)[C@@H](NS(=O)(=O)c1ccc2c(Cl)cnc(N=C(N)N)c2c1)C(=O)O has what pKi?
Result: < 4.00

====

- TARGET DESC: Plasminogen (Homo sapiens)
- Sequence (P00747 97-580 limits assumed): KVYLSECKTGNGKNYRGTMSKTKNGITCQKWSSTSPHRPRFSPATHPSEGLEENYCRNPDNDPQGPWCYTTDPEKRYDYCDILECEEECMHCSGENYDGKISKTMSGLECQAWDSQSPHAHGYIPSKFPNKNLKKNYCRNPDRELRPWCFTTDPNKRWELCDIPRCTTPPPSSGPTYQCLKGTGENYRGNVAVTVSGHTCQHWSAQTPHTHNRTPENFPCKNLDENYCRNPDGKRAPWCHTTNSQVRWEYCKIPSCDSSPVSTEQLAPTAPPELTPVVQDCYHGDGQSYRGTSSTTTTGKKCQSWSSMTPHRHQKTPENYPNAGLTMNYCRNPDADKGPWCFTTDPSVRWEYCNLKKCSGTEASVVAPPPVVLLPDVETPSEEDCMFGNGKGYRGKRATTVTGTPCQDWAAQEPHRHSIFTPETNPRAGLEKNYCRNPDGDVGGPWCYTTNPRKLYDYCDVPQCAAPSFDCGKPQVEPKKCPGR
- Sequence (P00747 581-810 limits assumed): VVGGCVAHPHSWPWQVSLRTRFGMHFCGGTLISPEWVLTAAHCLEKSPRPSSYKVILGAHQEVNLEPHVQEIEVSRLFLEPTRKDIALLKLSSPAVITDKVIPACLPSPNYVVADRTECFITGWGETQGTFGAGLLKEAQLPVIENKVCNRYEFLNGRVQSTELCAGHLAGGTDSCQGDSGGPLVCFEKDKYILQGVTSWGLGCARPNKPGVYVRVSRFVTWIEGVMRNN
ASSAY METRIC: Ki (µM)
Give the value, in units of µM, as a plain number.

These solved cases illustrate the format of a correct answer.
> print(dat)
                                     smiles                 target.desc  reported.measurement
1  CN1CCN(C(=O)C2(NS(=O)(=O)c3ccc4c(Cl)cnc(N=C(N)N)c4c3)CCCC2)CC1  Plasminogen (Homo sapiens)                    65
2  CC(C)(NS(=O)(=O)c1ccc2c(Cl)cnc(N=C(N)N)c2c1)C(=O)O  Plasminogen (Homo sapiens)                    27

Now, please, on to the next molecule.
Problem: I'm curious: which Ki was measured for NC(N)=Nc1ncc(Cl)c2ccc(S(=O)(=O)NC3(C(=O)O)CCCCC3)cc12 tested on Plasminogen (Homo sapiens)?
Result: 39

====

This document collects Ki values reported for Plasminogen (Homo sapiens, UniProt P00747).

Problem: Entry NC(N)=Nc1ncc(Cl)c2ccc(S(=O)(=O)NC3(C(=O)NCCO)CCCC3)cc12 has what Ki?
Result: > 100 µM

Problem: Entry CN(C)CCNC(=O)C1(NS(=O)(=O)c2ccc3c(Cl)cnc(N=C(N)N)c3c2)CCCC1 has what Ki?
Result: > 100 µM

Problem: Entry NC(N)=Nc1ncc(Cl)c2ccc(S(=O)(=O)NC3(C(=O)N4CCOCC4)CCCC3)cc12 has what Ki?
Result: > 30 µM

All figures here come from ChEMBL document CHEMBL1139871.
